- test details: Membrane permeability by PAMPA assay
- Assay type: ADME
- experimental setup: read-out: permeability
Would you kindly list Papp for each of these compounds?
Provide the reading as a plain figure in ×10⁻⁶ cm/s.

Recall and state the measured Papp for CC1(C)C(=O)N(c2ccc(C#N)c(Cl)c2)C(=S)N1c1cccc(S(N)(=O)=O)n1 .
1.3

Recall and state the measured Papp for CC1(C)C(=O)N(c2ccc(C#N)c(C(F)(F)F)c2)C(=S)N1c1cncc(S(N)(=O)=O)c1 .
14

Recall and state the measured Papp for CC1(C)C(=O)N(c2ccc(C#N)c(Cl)c2)C(=S)N1c1cccc(S(N)(=O)=O)c1 .
1.6

Recall and state the measured Papp for CC1(C)C(=O)N(c2ccc(C#N)c(C(F)(F)F)c2)C(=S)N1c1ccccc1 .
0.69

Recall and state the measured Papp for CC1(C)C(=O)N(c2ccc(C#N)c(C(F)(F)F)c2)C(=S)N1c1ccnc(S(N)(=O)=O)c1 .
12

Where do the numbers come from? From ChEMBL document CHEMBL1287756.
